Hello, the source for this data is paper PMC3849647, in case you need it.

# EXPERIMENT: Pharmacokinetics of CR8 in mouse plasma after oral and i.v. administration (HPLC-UV)
# Type: in vivo, mice
# STUDY_CONDITIONS: female, BALB/c, mouse, plasma, iv; i.v. bolus 50 mg/kg; read-out: CL (clearance) (converted)

>  <COMPOUND_SMILES>
CC[C@H](CO)Nc1nc(NCc2ccc(-c3ccccn3)cc2)c2ncn(C(C)C)c2n1

>  <clearance [mL/min]>
0.383

$$$$

---

# EXPERIMENT: Biodistribution of CR8 to mouse organs after oral administration
# Assay type: in vivo, mice
# STUDY_CONDITIONS: female, BALB/c, mouse; Adipose tissue, single oral 100 mg/kg
# Method: CR8 was dissolved in DMSO: 50 mM HCl (10:90 v/v). The first group of mice received i.v. doses of CR8 (50 mg/kg body weight), the second received oral doses of CR8 (100 mg/kg body weight) and three control mice received vehicle alone. […] Bone marrow was flushed from both femurs and mononuclear cells were counted and frozen. […] Nucleated cells were counted using Türk solution and bone marrow was stored at −20°C until assay. […]
QUANTITY_NAME: Cmax (ng/g)

>  <COMPOUND_SMILES>
CC[C@H](CO)Nc1nc(NCc2ccc(-c3ccccn3)cc2)c2ncn(C(C)C)c2n1

>  <RECORDED_MEASUREMENT>
48700

$$$$

---

# EXPERIMENT: Pharmacokinetics of CR8 in mouse plasma after oral and i.v. administration (HPLC-UV)
# Type: in vivo, mice
# STUDY_CONDITIONS: female, BALB/c, mouse, plasma, po, 100 mg/kg, Plasma, single oral 100 mg/kg; read-out: AUC

>  <COMPOUND_SMILES>
CC[C@H](CO)Nc1nc(NCc2ccc(-c3ccccn3)cc2)c2ncn(C(C)C)c2n1

>  <AUC>
96 µg·h/mL

$$$$

---

# EXPERIMENT: Biodistribution of CR8 to mouse organs after oral administration
# Format: in vivo, mice
# STUDY_CONDITIONS: female, BALB/c, mouse, bone marrow, po, 100 mg/kg, bone marrow, concentrations normalized to tissue weight/g, oral 100 mg/kg; read-out: Tissue/plasma exposure ratio (% AUC organ vs. AUC plasma)

>  <COMPOUND>
CC[C@H](CO)Nc1nc(NCc2ccc(-c3ccccn3)cc2)c2ncn(C(C)C)c2n1 [CR8]

>  <Kp>
0.3

$$$$
